# experimental target: SARS-CoV-2 Mpro (Severe acute respiratory syndrome coronavirus 2, UniProt P0DTD1)
# assay notes: SARS-CoV-2 Mpro FRET-based enzyme assay
# Format: biochemical
# experimental setup: 5 nM Mpro, 25 μM FRET substrate, 20 min preincubation at room temperature; mean n=2; read-out: SARS-CoV-2 Mpro enzyme pKi assay pKi (converted)
Each item that follows carries a reported log10 of Ki.
Scale: log10; quantity: Ki; unit before log: nM

// solved cases for log10 of Ki follow
>>> test_result("C=CC(=O)N[C@H](C(=O)N1C[C@H]2[C@@H]([C@H]1C(=O)NC(CC1CC1)C(=O)C(N)=O)C2(C)C)C(C)C (stereo partly shown)")
1.70
>>> test_result("CC[C@@H](C)[C@H](NC(=O)C(C)C)C(=O)N1C[C@H]2[C@@H]([C@H]1C(=O)NC(CC1CC1)C(=O)C(N)=O)C2(C)C (stereo partly shown)")
1.90
>>> test_result("CC(C)C(=O)N[C@H](C(=O)N1C[C@H]2[C@@H]([C@H]1C(=O)NC(CC1CC1)C(=O)C(N)=O)C2(C)C)C1CCC1 (stereo partly shown)")
2.40
>>> test_result("CC1(C)[C@@H]2[C@@H](C(=O)NC(CC3CC3)C(=O)C(N)=O)N(C(=O)[C@@H](NC(=O)C3CC3)C3CC3)C[C@@H]21 (stereo partly shown)")
2.50
>>> test_result("CC(C)C(=O)N[C@H](C(=O)N1C[C@H]2[C@@H]([C@H]1C(=O)NC(CC1CC1)C(=O)C(N)=O)C2(C)C)C(C)C (stereo partly shown)")
2.30

Query CC(C)[C@H](NC(=O)C1CC1)C(=O)N1C[C@H]2[C@@H]([C@H]1C(=O)NC(CC1CC1)C(=O)C(=O)NC1CC1)C2(C)C (stereo partly shown) on SARS-CoV-2 Mpro (Severe acute respiratory syndrome coronavirus 2, UniProt P0DTD1); log10 of Ki returned: 2.40

Query CC(C)(C)[C@H](NC(=O)C1CC1)C(=O)N1C[C@H]2[C@@H]([C@H]1C(=O)NC(CC1CC1)C(=O)C(=O)NC1CC1)C2(C)C (stereo partly shown) on SARS-CoV-2 Mpro (Severe acute respiratory syndrome coronavirus 2, UniProt P0DTD1); log10 of Ki returned: 1.70

Query CC(C)[C@H](NC(=O)C1CC1)C(=O)N1C[C@H]2[C@@H]([C@H]1C(=O)NC(CC1CC1)C(=O)C(N)=O)C2(C)C (stereo partly shown) on SARS-CoV-2 Mpro (Severe acute respiratory syndrome coronavirus 2, UniProt P0DTD1); log10 of Ki returned: 1.70

Query CC(C)C(=O)N[C@H](C(=O)N1C[C@H]2[C@@H]([C@H]1C(=O)NC(CC1CC1)C(=O)C(=O)N[C@H]1CC1(C)C)C2(C)C)C(C)(C)C (stereo partly shown) on SARS-CoV-2 Mpro (Severe acute respiratory syndrome coronavirus 2, UniProt P0DTD1); log10 of Ki returned: 2.00

Query CC(C)C(=O)N[C@H](C(=O)N1C[C@H]2[C@@H]([C@H]1C(=O)NC(CC1CC1)C(=O)C(N)=O)C2(C)C)C(C)(C)C (stereo partly shown) on SARS-CoV-2 Mpro (Severe acute respiratory syndrome coronavirus 2, UniProt P0DTD1); log10 of Ki returned: 1.20

----------
# experimental target: UniProt:P0DTD1
# assay notes: SARS-CoV-2 Mpro FRET-based enzyme assay
# Type: biochemical
# experimental setup: 5 nM Mpro, 25 μM FRET substrate, 20 min preincubation at room temperature; mean n=2; read-out: SARS-CoV-2 Mpro enzyme pKi assay pKi (converted)
Each item that follows carries a reported Ki.
Output spec: scalar in nM, unitless text.

// solved cases for Ki follow
>>> test_result("CC(C)(C)[C@H](NC(=O)C1CC1)C(=O)N1C[C@H]2[C@@H]([C@H]1C(=O)NC(CC1CC1)C(=O)C(N)=O)C2(C)C (stereo partly drawn)")
15.8
>>> test_result("CC(C)(C)[C@H](NC(=O)C(C(F)(F)F)C(F)(F)F)C(=O)N1C[C@H]2[C@@H]([C@H]1C(=O)NC(CC1CC1)C(=O)C(N)=O)C2(C)C (stereo partly drawn)")
158
>>> test_result("CC(C)(C)[C@H](NC(=O)C1CC1)C(=O)N1C[C@H]2[C@@H]([C@H]1C(=O)NC(CC1CC1)C(=O)C(=O)NCc1ccccc1)C2(C)C (stereo partly drawn)")
50.1

Recorded Ki (molecule CC(C)C(=O)NC(C(=O)N1C[C@H]2[C@@H]([C@H]1C(=O)NC(CC1CC1)C(=O)C(N)=O)C2(C)C)C1COC1 (stereo partly drawn) ): 316

Recorded Ki (molecule CC(C)C(=O)N[C@H](C(=O)N1C[C@H]2[C@@H]([C@H]1C(=O)NC(CC1CC1)C(=O)C(N)=O)C2(C)C)C1CC1 (stereo partly drawn) ): 316
